- EXPERIMENTAL PROTOCOL: recombinant barcode read abundance after kanamycin selection (control-corrected) (log10(CPM+1)); higher = more efficient recombination; sequences stand for … in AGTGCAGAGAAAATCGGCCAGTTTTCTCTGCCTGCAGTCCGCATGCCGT…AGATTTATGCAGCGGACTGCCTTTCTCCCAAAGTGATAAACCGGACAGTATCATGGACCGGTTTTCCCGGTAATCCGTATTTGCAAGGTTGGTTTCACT; site = the 11-nt target
REPORTED PROPERTY: recombinant barcode read abundance (log10)
Reply: number alone, nothing else.

Dear colleague, I am looking for the recorded recombinant barcode read abundance (log10) of the following sequence: AGTAAGACTTGGGTTCTAACCTGTTGCGT (site AGTAAGACTAG)
0.482

Check TGAAGGTCTTGGGTTCTAACCTGTTGCCT (site TGAATGTCTAG) too.
0.362

Moving on to AAGCTCCCTTGGGTTCTAACCTGTTGCCT (site AAGCTCCCTAG)
1.6

Repeat with CATGATGCTTGGGTTCTAACCTGTTGCCT (site CAGGATGCTAG)
0.00956

Try this sequence next: CGTATCCCTTGGGTTCTAACCTGTTGCTG (site CGTATCCCTCA)
0.692

* * *

- EXPERIMENTAL PROTOCOL: recombinant UMI read abundance after kanamycin selection (control-corrected) (log10(CPM+1)); higher = more efficient recombination; extreme values may be limits of the assay; sequences stand for … in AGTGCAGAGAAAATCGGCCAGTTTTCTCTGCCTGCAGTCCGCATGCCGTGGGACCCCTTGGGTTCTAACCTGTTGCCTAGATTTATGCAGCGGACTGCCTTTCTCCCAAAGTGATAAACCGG…AGGTTGGTTTCACT; site = the 11-nt donor
REPORTED PROPERTY: recombinant UMI read abundance (log10)
Write the value as a bare number.

So what does the record say about recombinant UMI read abundance (log10) for ACCCGATCATGGACCGGTTTTCCCGGTAATCCGTATTTGAT (site ACCCGATCTAT) ?
1.53

Also need GACCGTCCATGGACCGGTTTTCCCGGTAATCCGTATTTGAC (site GACCGTCCTGT) , thanks.
0

Also check CGATACTCATGGACCGGTTTTCCCGGTAATCCGTATTTGCT (site CGATACTCTAG)
2.52

Same lookup for GGGGCCCCATGGACCGGTTTTCCCGGTAATCCGTATTTGGC (site GGGGCCCCTGC) , please.
0

Same question, GGTACATCATGGACCGGTTTTCCCGGTAATCCGTATTTGTT (site GGTACATCTAA) this time
0.0632

* * *

Kindly supply the reported recombinant UMI read abundance (log10) values for the records listed here.
- EXPERIMENTAL PROTOCOL: recombinant UMI read abundance after kanamycin selection (control-corrected) (log10(CPM+1)); higher = more efficient recombination; extreme values may be limits of the assay; sequences stand for … in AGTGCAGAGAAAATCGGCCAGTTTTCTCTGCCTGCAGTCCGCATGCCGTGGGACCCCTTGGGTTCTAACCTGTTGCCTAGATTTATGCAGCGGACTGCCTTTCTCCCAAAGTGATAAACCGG…AGGTTGGTTTCACT; site = the 11-nt donor
Lab note: write the figure by itself, no unit.

Which recombinant UMI read abundance (log10) reading was recorded for the sequence ATACGGCCATGGACCGGTTTTCCCGGTAATCCGTATTTGAC (site ATAGGGCCTGT) ?
0

# repeat for CCAGCGCCATGGACCGGTTTTCCCGGTAATCCGTATTTGTG (site CGAGCGCCTCA)
0.0423

Now consider TGTGGAGCATGGACCGGTTTTCCCGGTAATCCGTATTTGGC (site TGTGGAGCTGC) .
1.6

Can you handle TCGCCTTCATGGACCGGTTTTCCCGGTAATCCGTATTTGGT (site TCGCCTTCTAC) next?
0.00817

Check GTAGTCGCATGGACCGGTTTTCCCGGTAATCCGTATTTGGG (site GTAGTCGCTCC) too.
0.132

Ok, now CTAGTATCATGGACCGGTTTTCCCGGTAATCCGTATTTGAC (site CAAGTATCTGA)
0

Again, but for CAAGCAGCATGGACCGGTTTTCCCGGTAATCCGTATTTGCT (site CAATCAGCTAG)
0

Next: GGCCAACCATGGACCGGTTTTCCCGGTAATCCGTATTTGTT (site GGCCAGCCTAA)
0.0207

Next: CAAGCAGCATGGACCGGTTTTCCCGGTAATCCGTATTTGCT (site CATGCAGCTAG)
0.0527

Moving on to CTGTACGCATGGACCGGTTTTCCCGGTAATCCGTATTTGGT (site CTGTACGCTAC)
1.26

Follow-up entry: GTTTCTGCATGGACCGGTTTTCCCGGTAATCCGTATTTGAG (site GTTTCTGCTCT)
0.45

Another sequence to look at: GTGGAGGCATGGACCGGTTTTCCCGGTAATCCGTATTTGTG (site GTGGAGGCTGA)
0.461

Would you kindly repeat that for CCCGGTCCATGGACCGGTTTTCCCGGTAATCCGTATTTGCG (site CCCGGTCCTAG) ?
0

And what about the sequence CCTAAAGCATGGACCGGTTTTCCCGGTAATCCGTATTTGAT (site CCTGAAGCTAT) ?
0

Also check TATCAGCCATGGACCGGTTTTCCCGGTAATCCGTATTTGTT (site TATCAGCCTAA)
0.0212

Input CGGAATGCATGGACCGGTTTTCCCGGTAATCCGTATTTGGT (site CGGAATGCTAC)
2.27

Then what about the sequence GTTCGGACATGGACCGGTTTTCCCGGTAATCCGTATTTGTG (site GTTCGGACTCA) ?
0.706

Also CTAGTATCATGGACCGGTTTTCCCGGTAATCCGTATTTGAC (site CTAGTACCTAT) ?
0.00604

CGTTGAACATGGACCGGTTTTCCCGGTAATCCGTATTTGTT (site CGTTGAACTAA) , same question.
0.623

Again, but for TAGACTACATGGACCGGTTTTCCCGGTAATCCGTATTTGCA (site TAGAATACTTG)
0.379

Now the same for CTCGACACATGGACCGGTTTTCCCGGTAATCCGTATTTGCT (site CTCGACACTAG)
2.25

Please answer likewise for CTCATATCATGGACCGGTTTTCCCGGTAATCCGTATTTGTC (site CGCATATCTGA)
0

Now this one: AGATCATCATGGACCGGTTTTCCCGGTAATCCGTATTTGCA (site CGATCATCTAG)
0

For AGGAAGTCATGGACCGGTTTTCCCGGTAATCCGTATTTGCA (site AGGAAGTCTTG) then?
3.29

Would you mind doing CGTGGAACATGGACCGGTTTTCCCGGTAATCCGTATTTGTT (site CGTGCAACTAA) as well?
0.00967

Now give it for AGCCTGGCATGGACCGGTTTTCCCGGTAATCCGTATTTGTT (site AGCCTGGCTAA) too.
0.0154

Please do the same for CCTAAGACATGGACCGGTTTTCCCGGTAATCCGTATTTGGC (site CCTAAAACTGC) as well.
0

Thanks! And GGATCCCCATGGACCGGTTTTCCCGGTAATCCGTATTTGCT (site GGATCCCCTAG) ?
0.0066

What do you have for GAGCTCACATGGACCGGTTTTCCCGGTAATCCGTATTTGAT (site GAGCTCCCTAT) ?
0.00734

Can you check CTGGAAACATGGACCGGTTTTCCCGGTAATCCGTATTTGCA (site CTTGAAACTTG) next?
0.578

What about this sequence? TTTCCGGCATGGACCGGTTTTCCCGGTAATCCGTATTTGCT (site TTTGCGGCTAG)
0.00591

Cool, now CGTCGAACATGGACCGGTTTTCCCGGTAATCCGTATTTGAA (site CGTCGAACTTT)
0.822

Please answer likewise for AATGAGTCATGGACCGGTTTTCCCGGTAATCCGTATTTGAC (site AATGCGTCTGT)
0

Then what about the sequence TGGAAGACATGGACCGGTTTTCCCGGTAATCCGTATTTGCG (site AGGAAGACTTG) ?
0

Same read-out for TAGCTAGCATGGACCGGTTTTCCCGGTAATCCGTATTTGGA (site TAGCTAGCTTA) ?
0.347

Moving on to the next sequence: CGGCCTCCATGGACCGGTTTTCCCGGTAATCCGTATTTGTT (site CGGAATCCTAA)
0.0121

* * *

- EXPERIMENTAL PROTOCOL: recombinant UMI read abundance after kanamycin selection (control-corrected) (log10(CPM+1)); higher = more efficient recombination; extreme values may be limits of the assay; sequences stand for … in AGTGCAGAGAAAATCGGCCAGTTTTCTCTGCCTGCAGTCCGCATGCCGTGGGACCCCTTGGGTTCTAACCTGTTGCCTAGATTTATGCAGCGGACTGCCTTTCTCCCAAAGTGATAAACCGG…AGGTTGGTTTCACT; site = the 11-nt donor
# cutoff 0.6 applies to recombinant UMI read abundance (log10); >= gives class 1, < gives class 0

Can ATTTATGCATGGACCGGTTTTCCCGGTAATCCGTATTTGGA (site ACTTATGCTTC) be said to have recombinant UMI read abundance (log10) at or above 0.6?
class 1

Same question, CAACTGACATGGACCGGTTTTCCCGGTAATCCGTATTTGCT (site CAACTGACTAG) this time
class 1

Same thing, different sequence: AATGTGCCATGGACCGGTTTTCCCGGTAATCCGTATTTGAC (site AATGTGGCTGT)
class 0

// next record CAAGGAGCATGGACCGGTTTTCCCGGTAATCCGTATTTGCT (site CAAGGAGCTAG)
class 1

Try this sequence too: CGAATTCCATGGACCGGTTTTCCCGGTAATCCGTATTTGTT (site CGAATTCCTAA)
class 1

Same for CGGGCGTCATGGACCGGTTTTCCCGGTAATCCGTATTTGCC (site CGGGCGTCTGG)
class 1

Please answer likewise for TCGTAGCCATGGACCGGTTTTCCCGGTAATCCGTATTTGTG (site TCGTAGCCTCA)
class 0

Another: GAGAAGCCATGGACCGGTTTTCCCGGTAATCCGTATTTGGG (site GAGAAGCCTCC)
class 0

Same question for ACATGAACATGGACCGGTTTTCCCGGTAATCCGTATTTGTC (site ACAAGAACTGA) please.
class 0

Also, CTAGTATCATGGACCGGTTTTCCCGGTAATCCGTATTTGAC (site CTGGTATCTGT) please.
class 0

And the next one, TAGCAAGCATGGACCGGTTTTCCCGGTAATCCGTATTTGAA (site TAGCCAGCTTT) ?
class 0

Moving on to the next sequence: CGACCATCATGGACCGGTTTTCCCGGTAATCCGTATTTGGC (site CGACCATCTGC)
class 1

Entry TAAGCCGCATGGACCGGTTTTCCCGGTAATCCGTATTTGGG (site TAAGCCGCTCC) please
class 0

Entry GTATCAGCATGGACCGGTTTTCCCGGTAATCCGTATTTGTC (site GTATCAGCTGA) please
class 1

Try CCCGGACCATGGACCGGTTTTCCCGGTAATCCGTATTTGCA (site CCCGGTCCTTG) next.
class 0

And then TACTGGGCATGGACCGGTTTTCCCGGTAATCCGTATTTGAA (site TACTGGGCTTT) , what is it?
class 1

Also check ACCAGCTCATGGACCGGTTTTCCCGGTAATCCGTATTTGCT (site ACCAGCTCTAG)
class 1

Now the sequence AGCAAGACATGGACCGGTTTTCCCGGTAATCCGTATTTGCA (site AGGAAGACTTG)
class 1

// data source = the supplement of paper PMC11208160
